Values from patent US11643385B2

Experiment: Solubility assessment and polymorph screen on Sample 1 (Form 1) of RAD1901-2HCl in 24 solvent systems
Type: physicochemical
Conditions: clear solutions cooled 50° C. to 5° C. at 0.1° C./min
Experimental: Solubility assessment was carried out on the Sample 1 of RAD1901-2HCl (majorly Form 1 shown by XRPD) in 24 solvent systems in HPLC vials (sample IDs: A1 to A24). […] After each addition of solvent, the system was stirred for 5 to 10 minutes at 25° C., then shaken at 50° C. for 5 to 10 minutes, and observations made. […] All solids recovered from maturation, cooling and evaporation experiments were analyzed by high resolution XRPD. […]
QUANTITY_KIND: Observation after Cooled to 5° C.

[[record]]
compound = "CCNCCc1ccc(CN(CC)c2cc(OC)ccc2[C@@H]2CCc3cc(O)ccc3C2)cc1.Cl.Cl [Form A24]"
measurement = "S"

[[record]]
compound = "CCNCCc1ccc(CN(CC)c2cc(OC)ccc2[C@@H]2CCc3cc(O)ccc3C2)cc1.Cl.Cl [Form A12]"
measurement = "S"

[[record]]
compound = "CCNCCc1ccc(CN(CC)c2cc(OC)ccc2[C@@H]2CCc3cc(O)ccc3C2)cc1.Cl.Cl [Form A23]"
measurement = "S"

[[record]]
compound = "CCNCCc1ccc(CN(CC)c2cc(OC)ccc2[C@@H]2CCc3cc(O)ccc3C2)cc1.Cl.Cl [Form A22]"
measurement = "Some"


--- query ---
Asked: Can you share its Observation after Cooled to 5° C.? I mean this compound: CCNCCc1ccc(CN(CC)c2cc(OC)ccc2[C@@H]2CCc3cc(O)ccc3C2)cc1.Cl.Cl [Form A11]
Given back: S

====

experiment: Solubility assessment and polymorph screen on Sample 1 (Form 1) of RAD1901-2HCl in 24 solvent systems; format: physicochemical; details: 40 vol. solvent (solvent per sample ID)
QUANTITY_KIND: Solubility observation at 40 vol.

[[record]]
compound = "CCNCCc1ccc(CN(CC)c2cc(OC)ccc2[C@@H]2CCc3cc(O)ccc3C2)cc1.Cl.Cl [Form A1]"
quantity_kind = "Solubility observation at 40 vol."
measurement = "X (X = suspension)"

[[record]]
compound = "CCNCCc1ccc(CN(CC)c2cc(OC)ccc2[C@@H]2CCc3cc(O)ccc3C2)cc1.Cl.Cl [Form A8]"
quantity_kind = "Solubility observation at 40 vol."
measurement = "X (X = suspension)"

[[record]]
compound = "CCNCCc1ccc(CN(CC)c2cc(OC)ccc2[C@@H]2CCc3cc(O)ccc3C2)cc1.Cl.Cl [Form A19]"
quantity_kind = "Solubility observation at 40 vol."
measurement = "X (X = suspension)"


====

assay: Solubility assessment and polymorph screen on amorphous RAD1901-2HCl; assay type: physicochemical; settings: maturation at 50° C./RT
QUANTITY_KIND: Observation After maturation at 50° C.

Solved entries (count: 5):
[[record]]
compound = "CCNCCc1ccc(CN(CC)c2cc(OC)ccc2[C@@H]2CCc3cc(O)ccc3C2)cc1.Cl.Cl [Form B11.]"
quantity_kind = "Observation After maturation at 50° C."
measurement = "S"

[[record]]
compound = "CCNCCc1ccc(CN(CC)c2cc(OC)ccc2[C@@H]2CCc3cc(O)ccc3C2)cc1.Cl.Cl [Form B24.]"
quantity_kind = "Observation After maturation at 50° C."
measurement = "Fine"

[[record]]
compound = "CCNCCc1ccc(CN(CC)c2cc(OC)ccc2[C@@H]2CCc3cc(O)ccc3C2)cc1.Cl.Cl [Form B12.]"
quantity_kind = "Observation After maturation at 50° C."
measurement = "Lath"

[[record]]
compound = "CCNCCc1ccc(CN(CC)c2cc(OC)ccc2[C@@H]2CCc3cc(O)ccc3C2)cc1.Cl.Cl [Form B8.]"
quantity_kind = "Observation After maturation at 50° C."
measurement = "Crystalline"

[[record]]
compound = "CCNCCc1ccc(CN(CC)c2cc(OC)ccc2[C@@H]2CCc3cc(O)ccc3C2)cc1.Cl.Cl [Form B22.]"
quantity_kind = "Observation After maturation at 50° C."
measurement = "Green"


Asked: Which measured Observation After maturation at 50° C. value corresponds to CCNCCc1ccc(CN(CC)c2cc(OC)ccc2[C@@H]2CCc3cc(O)ccc3C2)cc1.Cl.Cl [Form B23.] ?
Given back: Fine

Asked: Again, but for CCNCCc1ccc(CN(CC)c2cc(OC)ccc2[C@@H]2CCc3cc(O)ccc3C2)cc1.Cl.Cl [Form B13.]
Given back: Some

Asked: Next compound up: CCNCCc1ccc(CN(CC)c2cc(OC)ccc2[C@@H]2CCc3cc(O)ccc3C2)cc1.Cl.Cl [Form B20.]
Given back: Crystalline

Asked: Subsequent entry: CCNCCc1ccc(CN(CC)c2cc(OC)ccc2[C@@H]2CCc3cc(O)ccc3C2)cc1.Cl.Cl [Form B10.]
Given back: Fine

Asked: One more compound: CCNCCc1ccc(CN(CC)c2cc(OC)ccc2[C@@H]2CCc3cc(O)ccc3C2)cc1.Cl.Cl [Form B19.]
Given back: Green
